target: α7-nAChR (Rattus norvegicus, UniProt Q05941); type: binding
Sequence (Q05941 23-502): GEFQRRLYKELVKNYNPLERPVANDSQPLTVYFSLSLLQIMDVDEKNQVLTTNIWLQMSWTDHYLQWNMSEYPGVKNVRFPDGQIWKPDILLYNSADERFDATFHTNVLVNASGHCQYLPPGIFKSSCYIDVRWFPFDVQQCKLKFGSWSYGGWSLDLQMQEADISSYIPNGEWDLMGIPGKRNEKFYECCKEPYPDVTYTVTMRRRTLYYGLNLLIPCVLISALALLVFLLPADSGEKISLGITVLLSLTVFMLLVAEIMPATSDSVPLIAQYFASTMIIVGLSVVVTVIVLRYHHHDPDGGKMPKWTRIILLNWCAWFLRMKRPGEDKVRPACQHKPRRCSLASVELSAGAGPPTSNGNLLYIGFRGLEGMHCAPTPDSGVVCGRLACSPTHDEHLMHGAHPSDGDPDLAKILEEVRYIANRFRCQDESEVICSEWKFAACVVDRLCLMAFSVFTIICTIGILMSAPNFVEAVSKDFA
outcome_measure: Ki (nM)
Give a bare numeral; the unit nM is implied.

**Q:** Query (molecule): O=S1(=O)c2cc(N3CCN4CCC3CC4)ccc2-c2cccc([125I])c21 [[^125I]iodo-ASEM] ; field requested: Ki
**A:** 0.5

====

target: α3β4-nAChR (Homo sapiens, UniProt P30926+P32297); details: α3β4 (human), HEK-293 membranes, [^3H]epibatidine, mean ± SEM (n=3)
Sequence (P32297 32-505): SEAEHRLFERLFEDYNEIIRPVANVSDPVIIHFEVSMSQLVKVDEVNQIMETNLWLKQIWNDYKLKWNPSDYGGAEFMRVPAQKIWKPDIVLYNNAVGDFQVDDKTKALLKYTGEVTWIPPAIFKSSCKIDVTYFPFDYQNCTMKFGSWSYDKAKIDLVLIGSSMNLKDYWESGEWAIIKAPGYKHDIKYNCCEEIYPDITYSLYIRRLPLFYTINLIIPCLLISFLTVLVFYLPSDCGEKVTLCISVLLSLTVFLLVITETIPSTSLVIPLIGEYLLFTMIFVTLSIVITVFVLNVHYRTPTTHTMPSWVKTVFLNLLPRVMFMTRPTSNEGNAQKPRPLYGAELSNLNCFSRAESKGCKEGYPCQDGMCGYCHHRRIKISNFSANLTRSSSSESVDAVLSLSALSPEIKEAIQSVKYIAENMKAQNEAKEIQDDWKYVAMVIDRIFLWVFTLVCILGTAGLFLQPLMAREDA
Sequence (P30926 22-498): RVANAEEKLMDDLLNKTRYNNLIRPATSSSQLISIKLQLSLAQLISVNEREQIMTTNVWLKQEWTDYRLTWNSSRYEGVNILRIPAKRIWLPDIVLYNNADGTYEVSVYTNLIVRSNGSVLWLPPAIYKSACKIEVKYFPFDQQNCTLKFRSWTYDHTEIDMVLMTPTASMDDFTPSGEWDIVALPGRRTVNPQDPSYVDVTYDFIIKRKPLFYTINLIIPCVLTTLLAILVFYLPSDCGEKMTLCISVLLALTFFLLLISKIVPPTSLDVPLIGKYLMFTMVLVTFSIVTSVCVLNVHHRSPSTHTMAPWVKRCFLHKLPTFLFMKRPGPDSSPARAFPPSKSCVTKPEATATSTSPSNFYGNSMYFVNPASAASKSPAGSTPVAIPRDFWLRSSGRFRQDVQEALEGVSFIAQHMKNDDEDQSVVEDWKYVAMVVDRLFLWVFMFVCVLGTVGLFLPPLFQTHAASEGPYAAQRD
outcome_measure: Ki (nM)
Use nM as the unit, but write only the number.

**Q:** Can you share its Ki? I mean this molecule: O=S1(=O)c2cc(N3CCN4CCC3CC4)ccc2-c2cccc(I)c21
**A:** 45

====

molecular target: α7-nAChR (Rattus norvegicus, UniProt Q05941); format: binding; details: α7 (rat), HEK-293 membranes, [^3H]epibatidine, mean ± SEM (n=3)
outcome_measure: Ki
Lab note: write values as number then unit, every time.

**Q:** // query Ki value for entry O=S1(=O)c2cc(N3CCN4CCC3CC4)ccc2-c2cccc(I)c21
**A:** 0.5 nM
